The measured values listed here are drawn from patent US20150368338A1.

target: T1, IFN-αC (human, UniProt P01566 24-189); assay: ProteOn SPR, cell supernatant;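 also: each binding measurement used just a single antigen concentration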
T1 construct: Recombinant, HEK293; also called IFN-α10
pKd: −log10 of the molar value.

binder	pKd
IFWM3396 (antibody, IgG1, V domains shown, mAb; IgG1/kappa said of the parent and of selected mAbs; also called IFWB3131) VH: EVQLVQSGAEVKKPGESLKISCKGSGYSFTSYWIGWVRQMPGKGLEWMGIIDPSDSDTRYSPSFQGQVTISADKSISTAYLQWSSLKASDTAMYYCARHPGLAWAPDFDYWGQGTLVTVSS VL: DIQMTQSPSSLSASVGDRVTITCRASQSISEYLNWYQQKPGKAPKLLIYFASSLQSGVPSRFSGSGSGTDFTLTISSLQPEDFATYYCQQSHSLPITFGQGTKVEIK	11.30
IFWM3414 (antibody, IgG1, V domains shown, mAb; IgG1/kappa said of the parent and of selected mAbs; also called IFWB3149) VH: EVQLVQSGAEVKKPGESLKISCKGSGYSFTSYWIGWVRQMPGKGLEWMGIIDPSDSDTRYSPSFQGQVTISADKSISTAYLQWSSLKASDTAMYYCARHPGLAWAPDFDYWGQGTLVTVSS VL: DIQMTQSPSSLSASVGDRVTITCRASQSIRNNYLNWYQQKPGKAPKLLIYAASSLQSGVPSRFSGSGSGTDFTLTISSLQPEDFATYYCQQGYDTPLTFGQGTKVEIK	10.17
IFWM3407 (antibody, IgG1, V domains shown, mAb; IgG1/kappa said of the parent and of selected mAbs; also called IFWB3142) VH: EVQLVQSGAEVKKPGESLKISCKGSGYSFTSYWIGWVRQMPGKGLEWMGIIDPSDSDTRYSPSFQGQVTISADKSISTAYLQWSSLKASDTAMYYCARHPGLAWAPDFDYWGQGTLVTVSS VL: DIQMTQSPSSLSASVGDRVTITCRASQSIRNNNLNWYQQKPGKAPKLLIHWASSLQSGVPSRFSGSGSGTDFTLTISSLQPEDFATYYCQQGYDTPFTFGQGTKVEIK	10.49
IFWM3383 (antibody, IgG1, V domains shown, mAb; IgG1/kappa said of the parent and of selected mAbs; also called IFWB3118) VH: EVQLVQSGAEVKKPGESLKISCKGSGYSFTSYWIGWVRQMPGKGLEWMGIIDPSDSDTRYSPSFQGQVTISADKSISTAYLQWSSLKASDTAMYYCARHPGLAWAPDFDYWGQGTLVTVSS VL: DIQMTQSPSSLSASVGDRVTITCRASQSISKFLNWYQQKPGKAPKLLIYFASSLQSGVPSRFSGSGSGTDFTLTISSLQPEDFATYYCQQSNTLPFTFGQGTKVEIK	10.16
IFWM3416 (antibody, IgG1, V domains shown, mAb; IgG1/kappa said of the parent and of selected mAbs; also called IFWB3151) VH: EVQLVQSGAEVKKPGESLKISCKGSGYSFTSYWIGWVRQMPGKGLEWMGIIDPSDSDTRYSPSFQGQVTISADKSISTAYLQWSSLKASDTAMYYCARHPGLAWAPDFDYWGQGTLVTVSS VL: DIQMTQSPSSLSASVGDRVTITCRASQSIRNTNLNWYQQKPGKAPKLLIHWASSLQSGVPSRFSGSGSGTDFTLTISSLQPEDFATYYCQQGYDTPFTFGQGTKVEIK	10.54
IFWM3410 (antibody, IgG1, V domains shown, mAb; IgG1/kappa said of the parent and of selected mAbs; also called IFWB3145) VH: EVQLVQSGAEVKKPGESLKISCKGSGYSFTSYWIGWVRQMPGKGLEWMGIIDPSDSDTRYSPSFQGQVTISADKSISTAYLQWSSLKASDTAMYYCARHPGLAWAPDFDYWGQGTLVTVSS VL: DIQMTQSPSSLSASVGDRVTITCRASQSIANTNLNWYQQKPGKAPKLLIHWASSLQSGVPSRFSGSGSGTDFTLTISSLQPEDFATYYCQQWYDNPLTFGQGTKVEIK	10.43
IFWM3384 (antibody, IgG1, V domains shown, mAb; IgG1/kappa said of the parent and of selected mAbs; also called IFWB3119) VH: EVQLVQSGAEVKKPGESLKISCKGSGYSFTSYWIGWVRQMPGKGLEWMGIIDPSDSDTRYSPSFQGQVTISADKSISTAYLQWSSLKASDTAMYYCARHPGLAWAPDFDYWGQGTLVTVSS VL: DIQMTQSPSSLSASVGDRVTITCRASQSITNFLNWYQQKPGKAPKLLIYFASSLQSGVPSRFSGSGSGTDFTLTISSLQPEDFATYYCQQSLDFPLTFGQGTKVEIK	10.54
IFWM3411 (antibody, IgG1, V domains shown, mAb; IgG1/kappa said of the parent and of selected mAbs; also called IFWB3146) VH: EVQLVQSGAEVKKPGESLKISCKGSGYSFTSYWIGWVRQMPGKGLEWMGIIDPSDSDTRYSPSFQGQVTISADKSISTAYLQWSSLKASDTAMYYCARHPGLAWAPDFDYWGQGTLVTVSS VL: DIQMTQSPSSLSASVGDRVTITCRASQSIDNNNLNWYQQKPGKAPKLLIYAASSLQSGVPSRFSGSGSGTDFTLTISSLQPEDFATYYCQQGYDWPLTFGQGTKVEIK	10.64
IFWM3376 (antibody, IgG1, V domains shown, mAb; IgG1/kappa said of the parent and of selected mAbs; also called IFWB3111) VH: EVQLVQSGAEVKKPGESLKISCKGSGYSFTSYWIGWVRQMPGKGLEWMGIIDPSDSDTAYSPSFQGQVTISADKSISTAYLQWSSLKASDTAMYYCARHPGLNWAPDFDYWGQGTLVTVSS VL: DIQMTQSPSSLSASVGDRVTITCRASQSISNSNLNWYQQKPGKAPKLLIHWASSLQSGVPSRFSGSGSGTDFTLTISSLQPEDFATYYCQQWYDHPLTFGQGTKVEIK	10.47
IFWM3394 (antibody, IgG1, V domains shown, mAb; IgG1/kappa said of the parent and of selected mAbs; also called IFWB3129) VH: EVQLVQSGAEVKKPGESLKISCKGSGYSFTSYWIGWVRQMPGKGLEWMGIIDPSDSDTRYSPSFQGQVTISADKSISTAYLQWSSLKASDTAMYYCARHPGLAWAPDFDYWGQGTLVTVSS VL: DIQMTQSPSSLSASVGDRVTITCRASQSINEFLNWYQQKPGKAPKLLIYFASSLQSGVPSRFSGSGSGTDFTLTISSLQPEDFATYYCQQSYSTPLTFGQGTKVEIK	10.20
IFWM3372 (antibody, IgG1, V domains shown, mAb; IgG1/kappa said of the parent and of selected mAbs; also called IFWB3107) VH: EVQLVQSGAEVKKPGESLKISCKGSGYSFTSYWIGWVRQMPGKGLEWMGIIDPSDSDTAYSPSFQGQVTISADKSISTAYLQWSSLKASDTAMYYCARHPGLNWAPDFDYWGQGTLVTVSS VL: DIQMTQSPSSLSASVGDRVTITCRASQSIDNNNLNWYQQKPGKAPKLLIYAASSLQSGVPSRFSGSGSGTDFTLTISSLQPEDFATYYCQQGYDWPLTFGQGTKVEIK	10.03
